pKi for UniProt:P35408 - collated from the literature.
pKi: −log10 of the molar value.

>  <Compound>
C[C@H](NC(=O)c1c(Cl)sc(Cl)c1C(O)c1cccc(Cl)c1)c1ccc(C(=O)O)cc1 (some centres unmarked)

>  <System Tested>
UniProt:P35408

>  <Relational Operator>
=

>  <pKi>
8.74

$$$$
>  <Compound>
O=C(O)c1ccc(CCCC2OCC(=O)N2c2ccccc2)s1 (centres unmarked)

>  <System Tested>
UniProt:P35408

>  <Relational Operator>
<

>  <pKi>
5.00

$$$$
>  <Compound>
O=C(O)c1ccc(CNC(=O)c2cc(-c3ccc(Cl)cc3)ccc2Oc2ccc(F)cc2)cc1

>  <System Tested>
UniProt:P35408

>  <Relational Operator>
>

>  <pKi>
7.00

$$$$
>  <Compound>
O=C(O)c1ccc(CNC(=O)c2cc(-c3ccncc3)ccc2Oc2ccc(F)cc2)cc1

>  <System Tested>
UniProt:P35408

>  <Relational Operator>
>

>  <pKi>
7.00

$$$$
>  <Compound>
Cc1cc(F)ccc1-c1cccc(C(O)/C=C/[C@H]2CCC(=O)N2CCCc2ccc(C(=O)O)cc2)c1 (some centres unmarked)

>  <System Tested>
UniProt:P35408

>  <Relational Operator>
<

>  <pKi>
5.87

$$$$
>  <Compound>
CCCCCC[C@@H]1[C@@H](CCCc2ccc(C(=O)O)s2)[C@H](Cl)C[C@H]1O

>  <System Tested>
UniProt:P35408

>  <Relational Operator>
=

>  <pKi>
6.12

$$$$
>  <Compound>
O=C(O)CCC/C=C\C[C@@H]1[C@@H](COCc2cccc(C(F)(F)F)c2)[C@H](O)C[C@H]1Cl

>  <System Tested>
UniProt:P35408

>  <Relational Operator>
=

>  <pKi>
5.50

$$$$
>  <Compound>
Cc1ccccc1-c1cccc(C(O)/C=C/[C@H]2CCC(=O)N2CCCc2ccc(C(=O)O)cc2)c1 (single isomer, unassigned)

>  <System Tested>
UniProt:P35408

>  <Relational Operator>
=

>  <pKi>
6.80

$$$$

====

pKi: −log10 of the molar value.
pKi for Prostaglandin E2 receptor EP4 subtype (Homo sapiens, UniProt P35408) - collated from the literature.
Measured Parameter: pKi

>  <Compound>
Cc1cc(Cl)cc(C)c1-c1cccc(C(O)/C=C/[C@H]2CCC(=O)N2CCCc2ccc(C(=O)O)cc2)c1 (single isomer, unassigned)

>  <Relational Operator>
=

>  <Reported Measurement>
6.02

$$$$
>  <Compound>
COc1ccc(OC)c(CC2CCCCC2C(=O)NCc2ccc(C(=O)O)cc2)c1 (single isomer, unassigned)

>  <Relational Operator>
=

>  <Reported Measurement>
8.70

$$$$
>  <Compound>
COc1cccc(CC2CCCCC2C(=O)NCc2ccc(C(=O)O)cc2)c1 (single isomer, unassigned)

>  <Relational Operator>
=

>  <Reported Measurement>
8.40

$$$$
>  <Compound>
COc1cc(/C=C2\[C@@H]3CC[C@@H](C3)[C@H]2C(=O)NCc2ccc(C(=O)O)cc2)cc(OC)c1 (racemic)

>  <Relational Operator>
=

>  <Reported Measurement>
6.49

$$$$
>  <Compound>
Cc1cc(C)cc(/C=C/[C@@H]2[C@@H](CCCc3ccc(C(=O)O)s3)[C@H](Cl)C[C@H]2O)c1

>  <Relational Operator>
=

>  <Reported Measurement>
7.07

$$$$
>  <Compound>
O=C(O)c1ccc(CCN2C(=O)CCN2CCC(O)Cc2cccc(OC(F)(F)F)c2)cc1 (stereo not drawn)

>  <Relational Operator>
=

>  <Reported Measurement>
7.23

$$$$
>  <Compound>
O=C(O)c1ccc(CCC[C@@H]2[C@@H](C#Cc3cccc(CCCO)c3)[C@H](O)C[C@H]2Cl)s1

>  <Relational Operator>
=

>  <Reported Measurement>
5.82

$$$$
>  <Compound>
Cc1nn(Cc2cc3ccccc3cn2)c(C(=O)N[C@@H](C)c2ccc(C(=O)O)cc2)c1Br

>  <Relational Operator>
=

>  <Reported Measurement>
8.84

$$$$
>  <Compound>
Cc1cccc(/C=C/[C@@H]2[C@@H](CCCc3ccc(C(=O)O)s3)[C@H](Cl)C[C@H]2O)c1

>  <Relational Operator>
=

>  <Reported Measurement>
6.84

$$$$
>  <Compound>
CC(NC(=O)c1sc(Cl)cc1Cc1cccc(Cl)c1)c1ccc(C(=O)O)cc1 (stereo not drawn)

>  <Relational Operator>
=

>  <Reported Measurement>
8.28

$$$$
>  <Compound>
COc1cccc(CC2=C(C(=O)NCc3ccc(C(=O)O)cc3)CCCC2)c1

>  <Relational Operator>
=

>  <Reported Measurement>
8.70

$$$$
>  <Compound>
CCCCCCc1ccc2c(C(=O)NCCc3ccc(C(=O)O)s3)cccc2c1

>  <Relational Operator>
=

>  <Reported Measurement>
5.61

$$$$
>  <Compound>
CCCCCC(O)c1ccc2c(C(=O)Nc3cccc(OCC(=O)O)c3)cccc2c1 (stereo not drawn)

>  <Relational Operator>
<

>  <Reported Measurement>
5.00

$$$$
>  <Compound>
COc1cc(CC2=C(C(=O)NCc3ccc(C(=O)O)cc3)CCCCC2)cc(OC)c1

>  <Relational Operator>
=

>  <Reported Measurement>
9.00

$$$$
>  <Compound>
CCCCCCCC[C@@H]1[C@@H](CCCc2ccc(C(=O)O)s2)[C@H](Cl)C[C@H]1O

>  <Relational Operator>
=

>  <Reported Measurement>
6.40

$$$$

====

Ki for Prostaglandin E2 receptor EP4 subtype (Homo sapiens, UniProt P35408) - collated from the literature.

>  <Compound>
Cc1cc(Cl)ccc1-c1cc(C(O)/C=C/[C@H]2CCC(=O)N2CCCc2ccc(C(=O)O)cc2)ccc1F (single isomer, unassigned)

>  <Ki>
4480 nM

$$$$
>  <Compound>
O=C(O)c1ccc(CCC[C@H]2C(=O)C[C@@H](O)[C@@H]2C#Cc2ccccc2)s1

>  <Ki>
700 nM

$$$$
>  <Compound>
Cc1sc(C)c(C(=O)NC2(c3ccc(-c4nn[nH]n4)cc3)CC2)c1Cc1ccc(C(F)(F)F)cc1

>  <Ki>
0.6 nM

$$$$
>  <Compound>
O=C(O)c1ccc(CCC[C@@H]2[C@@H](/C=C/c3cncc(Cl)c3)[C@H](O)C[C@H]2Cl)s1

>  <Ki>
3500 nM

$$$$
>  <Compound>
C[C@H](NC(=O)c1c(C(F)F)nn(C)c1Oc1cccc(OC(F)F)c1)c1ccc(C(=O)O)cc1

>  <Ki>
10 nM

$$$$
>  <Compound>
CN(Cc1ccc(C(=O)O)cc1)C(=O)C1=C(Cc2cccc(C(F)(F)F)c2)CCC1

>  <Ki>
1570 nM

$$$$
>  <Compound>
N#Cc1cccc(-c2ccc(Oc3ccc(F)cc3)c(C(=O)NCc3ccc(C(=O)O)cc3)c2)c1

>  <Ki>
< 100 nM

$$$$
>  <Compound>
C[C@H](NC(=O)c1c(Cl)sc(Cl)c1C(OC1CCCCO1)c1cccc(Cl)c1)c1ccc(C(=O)O)cc1 (stereo partly drawn)

>  <Ki>
51 nM

$$$$
>  <Compound>
CCCCCC1(CC[C@@H]2[C@@H](CCCc3ccc(C(=O)O)s3)[C@H](Cl)C[C@H]2O)CCCCC1

>  <Ki>
5060 nM

$$$$
>  <Compound>
O=C(O)c1ccc(CCCN2C(=O)CC[C@@H]2/C=C/C(O)c2cccc(-c3ccccc3)c2)cc1 (single isomer, unassigned)

>  <Ki>
8560 nM

$$$$
>  <Compound>
CCCc1cc(Cl)ccc1-c1cccc(C(O)/C=C/[C@H]2CCC(=O)N2CCCc2ccc(C(=O)O)cc2)c1 (single isomer, unassigned)

>  <Ki>
1310 nM

$$$$
>  <Compound>
COc1cc(CC2C3CCC(C3)C2C(=O)NCc2ccc(C(=O)O)cc2)cc(OC)c1 (racemic)

>  <Ki>
77 nM

$$$$
>  <Compound>
O=C(O)c1ccc(CNC(=O)c2cc(-c3cncnc3)ccc2Oc2ccc(F)cc2)cc1

>  <Ki>
100 to 1000 nM

$$$$
>  <Compound>
Cc1ccc(-c2cccc(CO)c2)nc1C(=O)Nc1c(C)ccc(C(=O)O)c1C

>  <Ki>
2.07 nM

$$$$
>  <Compound>
O=C(O)c1csc(SCC[C@@H]2[C@@H](C#Cc3ccccc3)[C@H](O)C[C@H]2Cl)n1

>  <Ki>
463 nM

$$$$

====

pKi: −log10 of the molar value.
pKi for Prostaglandin E2 receptor EP4 subtype (Homo sapiens, UniProt P35408) - collated from the literature.
Think of 6 as a floor: if pKi stands on it or above, it is y; beneath it, n.

>  <Compound>
Cc1sc(C)c(C(=O)NC2(c3ccc(C(=O)O)cc3)CC2)c1Cc1cccc(C(F)(F)F)c1

>  <Class Assignment>
y

$$$$
>  <Compound>
O=C(O)c1ccc(CCC[C@@H]2[C@@H](C#Cc3ccsc3)[C@H](O)C[C@H]2Cl)s1

>  <Class Assignment>
n

$$$$
>  <Compound>
COc1cc(CC2CCCCCC2C(=O)NCc2ccc(C(=O)O)cc2)cc(OC)c1 (single isomer, unassigned)

>  <Class Assignment>
y

$$$$
>  <Compound>
CCCCC[C@H](O)c1ccc(N2C(=O)CO[C@H]2CCCc2ccc(C(=O)O)s2)cc1 (single isomer, unassigned)

>  <Class Assignment>
n

$$$$
>  <Compound>
COc1ccccc1CC1CCCCC1C(=O)NCc1ccc(C(=O)O)cc1 (single isomer, unassigned)

>  <Class Assignment>
y

$$$$
>  <Compound>
CCc1cc(Cl)ccc1-c1cccc(C(O)/C=C/[C@H]2CCC(=O)N2CCCc2ccc(C(=O)O)cc2)c1 (single isomer, unassigned)

>  <Class Assignment>
y

$$$$
